Test system: K4 kissing-loop RNA reporter;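 also: bound reporter read as fluorescence of individual clusters on recovered sequencing chips by microscopy, with normalized cluster intensities fitted with a binding model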
Assay: apparent KD of K4 kissing-loop reporter; higher = weaker reporter binding
Conditions: Eterna round: R107; input ligand: theophylline 20 uM
Binary call on apparent KD of K4 kissing-loop reporter: condition met from 200 nM upward, condition not met beneath that.

{"sequence-text": "AACUGUCAAGGACAACAUUACUGCAGUGAUACCAGCAUCGAAAGAUGCCCUUGGCAGCACUAACUUGCAGUGAUGUUGCAAGUAA [BrourdMod 4 - Jieux - Exclusion - Theophylline A]", "assigned-category": "condition met"}
{"sequence-text": "UUGAGACGUCAAGGAUAUUCCGCGGAAGGGCGAGCGACCCAAGUGUGAGUGAUGUUCAGCAAGCCGGAAGAAGGUGAAUUUCACC [theeternabot_sameState_KL_FMN_B_26]", "assigned-category": "condition met"}
{"sequence-text": "UCGACUGUGUCGGCCGCCACUGGUAUAAACGGACUAUAACGACAUGAGUGAUGUUCAUGUUCGUCUAGGACCGGGACACAAUGUA [Tryp B Ex t3]", "assigned-category": "condition not met"}
{"sequence-text": "GCCGCCGCGGCAGGAUAUAGACAUUGAGUGAUGUUCGGUGCUUAUCCAAAGUGCUGUUUCGGCCAACUAGAAGGGCCGCGGCGGC", "assigned-category": "condition not met"}
{"sequence-text": "AAAGGCAAAGCCCGAGUGAUGUUCGACGAUACCAGCCUCGAUAGAGGCCCUUGGCAGCGUAAAUGAUCAUGAAGCCAAGGAAUAA [whbob_Ex_Theo_A_th67]", "assigned-category": "condition met"}
{"sequence-text": "AGAUUCGACACGGCCGCCACUUCCAGUGGCUGGUGUCAUGGUGCGCGUGAGUGAUGUUUAUGUGGAAGGACCGGGUGUUGAGUCU [KL-XTryp-B1 #analogue]", "assigned-category": "condition met"}
